Below, each entry is listed alongside its reported Granulation tissue Wet wt. Inhibition.
system: granulation tissue formation caused by implantation of cotton pellets; experiment: Granuloma formation test (local cotton pellet granuloma assay); assay type: in vivo, rat; settings: Table IV, 1000 μg/pellet
# include the unit after the value

Some entries whose results are on file:
compound	Granulation tissue Wet wt. Inhibition
CC(C)OC(=O)O[C@]1(C(=O)OCCl)CC[C@H]2[C@@H]3CCC4=CC(=O)CC[C@]4(C)[C@H]3[C@@H](O)C[C@@]21C	46.1%
CCCC(=O)O[C@]1(C(=O)CO)CC[C@H]2[C@@H]3CCC4=CC(=O)CC[C@]4(C)[C@H]3[C@@H](O)C[C@@]21C [Hydrocortisone 17-butyrate, reference compound]	35.3%
CCCCC(=O)O[C@]1(C(=O)CO)[C@@H](C)C[C@H]2[C@@H]3CCC4=CC(=O)C=C[C@]4(C)[C@@]3(F)[C@@H](O)C[C@@]21C [Betamethasone 17-valerate, reference compound]	35.9%

Now look at this entry.
// query Granulation tissue Wet wt. Inhibition value for entry `CC(C)OC(=O)O[C@]1(C(=O)OCCl)CC[C@H]2[C@@H]3CCC4=CC(=O)C=C[C@]4(C)[C@H]3[C@@H](O)C[C@@]21C`
// result 48.9%

====

test system: granulation tissue formation caused by implantation of cotton pellets; assay: Granuloma formation test (local cotton pellet granuloma assay); format: in vivo, rat; conditions: Table III, 1 mg/pellet
Below, each entry is listed alongside its reported Granulation tissue Inhibition.
Give the quantity in %, number only.

Some entries whose results are on file:
compound	unitInfo	measValue
CCCC(=O)O[C@]1(C(=O)CO)CC[C@H]2[C@@H]3CCC4=CC(=O)CC[C@]4(C)[C@H]3[C@@H](O)C[C@@]21C [Hydrocortisone 17-butyrate, reference compound]	%	26.3
CCCCC(=O)O[C@]1(C(=O)CO)[C@@H](C)C[C@H]2[C@@H]3CCC4=CC(=O)C=C[C@]4(C)[C@@]3(F)[C@@H](O)C[C@@]21C [Betamethasone 17-valerate, reference compound]	%	19.0
CCOC(=O)O[C@]1(C(=O)OCCl)CC[C@H]2[C@@H]3CCC4=CC(=O)CC[C@]4(C)[C@H]3[C@@H](O)C[C@@]21C	%	68.0

Now look at this entry.
// query Granulation tissue Inhibition value for entry COC(=O)O[C@]1(C(=O)OCCl)CCC2C3CCC4=CC(=O)CCC4(C)C3C(O)CC21C (stereo partly shown)
// result 43.7

====

Below, each entry is listed alongside its reported Body weight gain.
tested on: thymus weight in rats; experiment: Thymus inhibition testing (subcutaneous administration); assay type: in vivo, rat; settings: Table VII, 3 mg/kg/day s.c., three days
Give the quantity in g, number only.

compound	unitInfo	Body weight gain
CCOC(=O)O[C@]1(C(=O)OCCl)[C@H](C)C[C@H]2[C@@H]3CCC4=CC(=O)C=C[C@]4(C)[C@@]3(F)[C@@H](O)C[C@@]21C	g	12.7
CC(C)OC(=O)O[C@]1(C(=O)OCCl)CC[C@H]2[C@@H]3CCC4=CC(=O)C=C[C@]4(C)[C@H]3[C@@H](O)C[C@@]21C	g	9.0
CCCC(=O)O[C@]1(C(=O)CO)CC[C@H]2[C@@H]3CCC4=CC(=O)CC[C@]4(C)[C@H]3[C@@H](O)C[C@@]21C [Hydrocortisone 17-butyrate, reference compound]	g	7.3
CCCCC(=O)O[C@]1(C(=O)CO)[C@@H](C)C[C@H]2[C@@H]3CCC4=CC(=O)C=C[C@]4(C)[C@@]3(F)[C@@H](O)C[C@@]21C [Betamethasone 17-valerate, reference compound]	g	9.9

Now look at this entry.
// query Body weight gain value for entry `CC(C)OC(=O)O[C@]1(C(=O)OCCl)CC[C@H]2[C@@H]3CCC4=CC(=O)CC[C@]4(C)[C@H]3[C@@H](O)C[C@@]21C`
// result 14.7
